Target: E. coli SPase (Escherichia coli, UniProt P00803)
Sequence (P00803 whole entry): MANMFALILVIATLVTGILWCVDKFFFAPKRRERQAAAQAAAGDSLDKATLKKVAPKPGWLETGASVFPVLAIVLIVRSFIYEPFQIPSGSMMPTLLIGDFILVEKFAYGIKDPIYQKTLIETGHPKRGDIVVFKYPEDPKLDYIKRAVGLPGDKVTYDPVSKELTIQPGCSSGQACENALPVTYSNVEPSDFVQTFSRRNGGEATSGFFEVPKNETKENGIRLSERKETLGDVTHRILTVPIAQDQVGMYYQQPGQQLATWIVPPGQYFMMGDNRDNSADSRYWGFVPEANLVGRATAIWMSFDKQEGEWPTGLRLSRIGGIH
Assay Method Text: Biochemical SPase activity assay (fluorogenic peptide substrate), E. coli enzyme
Square brackets hold non-standard residues; d marks the D form. Peptide text beside a SMILES is read from it. * marks the point of attachment. Biphenylcarbonyl(4'-Bu) = CCCCc1ccc(-c2ccc(C(=O)*)cc2)cc1; boroAla = C[C@H](N*)B(O)O; Dap = NC[C@H](N)C(=O)O
So I've got a bunch of compounds here, and I need their IC50 values.
Write down the numeric answer in nM and omit the unit.

Query block: Given the entry CCCCc1ccc(-c2ccc(C(=O)N[C@@H](CCCCN)C(=O)N[C@@H](CN)C(=O)N[C@@H](C)C(=O)N[C@@H](CC(C)C)C(=O)N[C@@H](C)B(O)O)cc2)cc1 [Compound 165] ({Biphenylcarbonyl(4'-Bu)}-K[Dap]AL-boroAla) , report its measured IC50.
Result block: 120

Query block: Item: CCCCc1ccc(-c2ccc(C(=O)N[C@@H](CN)C(=O)N[C@H](C(=O)N[C@@H](C)C(=O)N[C@@H](CCCCN)C(=O)N[C@@H](C)B(O)O)[C@@H](C)O)cc2)cc1 [Compound 162] ({Biphenylcarbonyl(4'-Bu)}-[Dap]TAK-boroAla)
Result block: 12

###

Target: E. coli SPase (Escherichia coli, UniProt P00803)
Assay Method Text: Biochemical SPase activity assay (fluorogenic peptide substrate), E. coli enzyme
Square brackets hold non-standard residues; d marks the D form. Peptide text beside a SMILES is read from it. * marks the point of attachment. ξ: configuration not given here. Biphenylcarbonyl(4'-Bu) = CCCCc1ccc(-c2ccc(C(=O)*)cc2)cc1; X1 = C[C@H](N*)B1OC2C[C@@H]3C[C@@H](C3(C)C)[C@]2(C)O1; Benzoyl(4-hexyl) = CCCCCCc1ccc(C(=O)*)cc1; NMeThr(3ξ) = CN[C@H](C(=O)O)C(C)O; Myristoyl = CCCCCCCCCCCCCC(=O)*; X6 = C[C@@H](N*)C(=O)C(N)=O; boroAla = C[C@H](N*)B(O)O; Orn = NCCC[C@H](N)C(=O)O; boroGly = OB(O)CN*; βAla = NCCC(=O)O
Values of IC50 strictly less than 1000 nM map to MET, and values of at least 1000 nM map to NOT MET.

Query block: I'd appreciate it if you could check whether CCCCc1ccc(-c2ccc(C(=O)NCCC(=O)N[C@@H](CCCCN)C(=O)N[C@@H](CCCCN)C(=O)N[C@@H](C)C(=O)N[C@@H](CCCCN)C(=O)N[C@@H](C)B(O)O)cc2)cc1 [Compound 224] ({Biphenylcarbonyl(4'-Bu)-βAla}-KKAK-boroAla) has IC50 smaller than 1000 nM.
Result block: MET

Query block: Lookup CCCCCCc1ccc(C(=O)N[C@H](CO)C(=O)N[C@H](C)C(=O)NCC(=O)N(C)[C@H](C(=O)N[C@@H](C)C(=O)N[C@@H](CC(C)C)C(=O)NCB(O)O)C(C)O)cc1 (some centres unmarked) [Compound 125] ({Benzoyl(4-hexyl)}-[dS][dA]G[NMeThr(3ξ)]AL-boroGly)
Result block: MET

Query block: Same question for CCCCc1ccc(-c2ccc(C(=O)N[C@@H](CCCCN)C(=O)N[C@@H](CCCCN)C(=O)N[C@@H](C)C(=O)N[C@@H](CC(C)C)C(=O)N[C@H](C)C(=O)C(N)=O)cc2)cc1 [Compound 254] ({Biphenylcarbonyl(4'-Bu)}-KKAL-X6) please.
Result block: NOT MET

Query block: Try this molecule too: CCCCc1ccc(-c2ccc(C(=O)N[C@@H](CCCN)C(=O)N[C@H](C(=O)N[C@@H](C)C(=O)N[C@@H](CCCCN)C(=O)N[C@@H](C)B3OC4C[C@@H]5C[C@@H](C5(C)C)[C@]4(C)O3)[C@@H](C)O)cc2)cc1 (some centres unmarked) [Compound 142] ({Biphenylcarbonyl(4'-Bu)}-[Orn]TAK-X1)
Result block: MET

Query block: Same read-out for CCCCc1ccc(-c2ccc(C(=O)N3CCC(C(=O)N[C@H](C(=O)N[C@@H](C)C(=O)N[C@@H](CCCCN)C(=O)N[C@@H](C)B4O[C@@H]5C[C@@H]6C[C@@H](C6(C)C)[C@]5(C)O4)[C@@H](C)O)CC3)cc2)cc1 [Compound 272] ?
Result block: NOT MET

Query block: Also check CCCCc1ccc(-c2ccc(C(=O)N[C@@H](CCCCN)C(=O)N[C@@H](C)C(=O)N[C@@H](CC(C)C)C(=O)N[C@@H](C)B(O)O)cc2)cc1 [Compound 191]
Result block: NOT MET

Query block: Now the molecule CCCCCCCCCCCCCC(=O)N[C@H](CO)C(=O)N[C@H](C)C(=O)NCC(=O)N(C)[C@H](C(=O)N[C@@H](C)C(=O)N[C@@H](CC(C)C)C(=O)NCB(O)O)C(C)O (some centres unmarked) [Compound 122] (Myristoyl-[dS][dA]G[NMeThr(3ξ)]AL-boroGly)
Result block: NOT MET

Query block: Thanks! And CCCCc1ccc(-c2ccc(C(=O)N[C@@H](Cc3c[nH]cn3)C(=O)N[C@H](C(=O)N[C@@H](C)C(=O)N[C@@H](CCCCN)C(=O)N[C@@H](C)B3OC4C[C@@H]5C[C@@H](C5(C)C)[C@]4(C)O3)[C@@H](C)O)cc2)cc1 (some centres unmarked) [Compound 143] ({Biphenylcarbonyl(4'-Bu)}-HTAK-X1) ?
Result block: MET

###

Can you tell me pIC50 for the items I'm about to list?
Target: E. coli SPase (Escherichia coli)
Assay Method Text: Biochemical SPase activity assay (fluorogenic peptide substrate), E. coli enzyme
Numbered stars: 1 amine (or outer) side, 2 acyl side, 3 side chain; on linkers, the order of the positions; unused ones are H or OH. Square brackets hold non-standard residues; d marks the D form. Peptide text beside a SMILES is read from it. * marks the point of attachment. ξ: configuration not given here. Biphenylcarbonyl(4'-Bu) = CCCCc1ccc(-c2ccc(C(=O)*)cc2)cc1; X1 = C[C@H](N*)B1OC2C[C@@H]3C[C@@H](C3(C)C)[C@]2(C)O1; ξ3Amino2oxobutanoyl = CC(N[*:1])C(=O)C(=O)[*:2]; Thr(3ξ) = CC(O)[C@H](N)C(=O)O; boroAla = C[C@H](N*)B(O)O; Orn = NCCC[C@H](N)C(=O)O; Dab = NCC[C@H](N)C(=O)O; Dap = NC[C@H](N)C(=O)O; βAla = NCCC(=O)O
Just so you know, pIC50 here is -log10 of the concentration in molar units; reply with that number alone.

Query block: Missing value: pIC50, E. coli SPase (Escherichia coli), entry CCCCc1ccc(-c2ccc(C(=O)N[C@@H](CCN)C(=O)N[C@H](C(=O)N[C@@H](C)C(=O)N[C@@H](CCCCN)C(=O)N[C@@H](C)B3OC4C[C@@H]5C[C@@H](C5(C)C)[C@]4(C)O3)C(C)O)cc2)cc1 (stereo partly shown) [Compound 148] ({Biphenylcarbonyl(4'-Bu)}-[Dab][Thr(3ξ)]AK-X1) . Fill in?
Result block: 8.13

Query block: CCCCc1ccc(-c2ccc(C(=O)N[C@@H](CCCCN)C(=O)N[C@H](C(=O)N[C@@H](C)C(=O)N[C@@H](CCCCN)C(=O)N[C@@H](C)B3OC4C[C@@H]5C[C@@H](C5(C)C)[C@]4(C)O3)[C@@H](C)O)cc2)cc1 (stereo partly shown) [Compound 132] ({Biphenylcarbonyl(4'-Bu)}-KTAK-X1) ?
Result block: 7.62

Query block: And what about the compound CCCCc1ccc(-c2ccc(C(=O)NCCC(=O)N[C@@H](CCCCN)C(=O)N[C@@H](CCCCN)C(=O)N[C@@H](C)C(=O)N[C@@H](CC(C)C)C(=O)N[C@@H](C)B3OC4C[C@@H]5C[C@@H](C5(C)C)[C@]4(C)O3)cc2)cc1 (stereo partly shown) [Compound 218] ({Biphenylcarbonyl(4'-Bu)-βAla}-KKAL-X1) ?
Result block: 8.16

Query block: Also CCCCc1ccc(-c2ccc(OC(=O)N[C@@H](CCCCN)C(=O)N[C@H](C(=O)N[C@@H](C)C(=O)N[C@@H](CC(N)=O)C(=O)N[C@@H](C)B3OC4C[C@@H]5C[C@@H](C5(C)C)[C@]4(C)O3)[C@@H](C)O)cc2)cc1 (stereo partly shown) [Compound 262] , if possible.
Result block: 7.43

Query block: Also need CCCCc1ccc(-c2ccc(C(=O)NCCC(=O)N[C@@H](CCCCN)C(=O)N[C@H](C(=O)N[C@@H](C)C(=O)N[C@@H](CC(N)=O)C(=O)NC(C)C(=O)C(=O)NC)[C@@H](C)O)cc2)cc1 (stereo partly shown) [Compound 252] ({Biphenylcarbonyl(4'-Bu)-βAla}-KTAN[ξ3Amino2oxobutanoyl]-NHMe) , thanks.
Result block: 5.52

Query block: Could you do the same for CCCCc1ccc(-c2ccc(C(=O)N[C@@H](CN)C(=O)N[C@@H](CCCCN)C(=O)N[C@@H](C)C(=O)N[C@@H](CCCCN)C(=O)N[C@@H](C)B(O)O)cc2)cc1 [Compound 186] ({Biphenylcarbonyl(4'-Bu)}-[Dap]KAK-boroAla) , please?
Result block: 8.16

Query block: Do the same for CCCCc1ccc(-c2ccc(C(=O)N[C@@H](CCCN)C(=O)N[C@H](C(=O)N[C@@H](C)C(=O)N[C@@H](CCCCN)C(=O)N[C@@H](C)B(O)O)C(C)O)cc2)cc1 (stereo partly shown) [Compound 156] ({Biphenylcarbonyl(4'-Bu)}-[Orn][Thr(3ξ)]AK-boroAla) please
Result block: 8.26

Where these numbers come from: patent US9708368B2
